Test: Therapeutic index, ratio of IC50 for mouse Peritoneal macrophages to IC50 for SSG-resistant Leishmania donovani 39 amastigote infected in mouse peritoneal macrophages
Details: read-out: Ratio IC50
measuredParameter: selectivity ratio

Reference set (5 entries):
O=c1cc(-c2ccc(O)c(O)c2)oc2cc(O)cc(O)c12 10.1
NC[C@@H]1O[C@H](O[C@H]2[C@@H](O)[C@H](O[C@@H]3[C@@H](O)[C@H](N)C[C@H](N)[C@H]3O[C@H]3O[C@H](CO)[C@@H](O)[C@H](O)[C@H]3N)O[C@@H]2CO)[C@H](N)[C@@H](O)[C@@H]1O > 2.4
O=c1c(O)c(-c2ccc(O)c(O)c2)oc2cc(O)cc(O)c12 > 16.7
COc1c(-c2ccc(OCCOCCN(CCOCCOc3ccc(-c4oc5ccccc5c(=O)c4OC)cc3)Cc3ccncc3)cc2)oc2ccccc2c1=O > 9.6
O=c1cc(-c2ccc(OCCOCCN(CCOCCOc3ccc(-c4cc(=O)c5ccccc5o4)cc3)Cc3ccncn3)cc2)oc2ccccc12 > 23.6

The compound listed as `O=c1cc(-c2ccc(OCCOCCN(CCOCCOc3ccc(-c4cc(=O)c5ccccc5o4)cc3)Cc3ccncc3)cc2)oc2ccccc12` shows selectivity ratio equal to > 140

The compound listed as `O=c1cc(-c2ccc(OCCOCCN(CCOCCOc3ccc(-c4cc(=O)c5cc(F)ccc5o4)cc3)Cc3ccncc3)cc2)oc2ccc(F)cc12` shows selectivity ratio equal to > 32.3

The compound listed as `O=c1cc(-c2ccc(OCCOCCN(CCOCCOc3ccc(-c4cc(=O)c5ccccc5o4)cc3)Cc3ccnc(Br)c3)cc2)oc2ccccc12` shows selectivity ratio equal to > 10

The compound listed as `O=c1cc(-c2ccccc2OCCOCCN(CCOCCOc2ccccc2-c2cc(=O)c3ccccc3o2)Cc2ccncc2)oc2ccccc12` shows selectivity ratio equal to > 1.6

The compound listed as `C[C@@H]1[C@H](O)[C@@H](C)/C=C/C=C/C=C/C=C/C=C/C=C/C=C/[C@H](O[C@@H]2O[C@H](C)[C@@H](O)[C@H](N)[C@@H]2O)C[C@@H]2O[C@](O)(C[C@@H](O)C[C@@H](O)[C@H](O)CC[C@@H](O)C[C@@H](O)CC(=O)O[C@H]1C)C[C@H](O)[C@H]2C(=O)O` shows selectivity ratio equal to 119

The compound listed as `N=C(N)c1ccc(OCCCCCOc2ccc(C(=N)N)cc2)cc1` shows selectivity ratio equal to < 1

* * *

Tested on: Leishmania donovani
Assay: Antimicrobial activity against wild-type Leishmania donovani AG83 promastigote assessed as inhibition of parasite growth after 72 hrs by MTS assay
Assay type: functional, organism-based
Details: AG83, 72 h
measuredParameter: pIC50
pIC50 is a log-scale quantity: -log10 of the concentration expressed in molar.

O=c1cc(-c2ccc(OCCOCCN(CCOCCOc3ccc(-c4cc(=O)c5ccccc5o4)cc3)Cc3ccncn3)cc2)oc2ccccc12 6.36

Here is another molecule to look at.
The molecule listed as `CCOC(=O)CCN(CCOCCOc1ccc(-c2cc(=O)c3ccccc3o2)cc1)CCOCCOc1ccc(-c2cc(=O)c3ccccc3o2)cc1` shows pIC50 equal to 5.42

* * *

selectivity ratio values by entry
Assay: Therapeutic index, ratio of IC50 for mouse Peritoneal macrophages to IC50 for pentamidine-resistant Leishmania donovani AG83PentR50 promastigote
Details: read-out: Ratio IC50
Number, no unit, nothing else.

Reference set (2 entries):
C[C@@H]1[C@H](O)[C@@H](C)/C=C/C=C/C=C/C=C/C=C/C=C/C=C/[C@H](O[C@@H]2O[C@H](C)[C@@H](O)[C@H](N)[C@@H]2O)C[C@@H]2O[C@](O)(C[C@@H](O)C[C@@H](O)[C@H](O)CC[C@@H](O)C[C@@H](O)CC(=O)O[C@H]1C)C[C@H](O)[C@H]2C(=O)O 145
O=c1cc(-c2ccc(O)c(O)c2)oc2cc(O)cc(O)c12 0.9

The compound listed as `N=C(N)c1ccc(OCCCCCOc2ccc(C(=N)N)cc2)cc1` shows selectivity ratio equal to 0.6

* * *

pIC50 values by entry
Tested on: Leishmania donovani
Assay: Antimicrobial activity against SSG-resistant Leishmania donovani 39 promastigote assessed as inhibition of parasite growth after 72 hrs by MTS assay
Assay type: functional, organism-based
Conditions: Leishmania donovani, 39, 72 h
pIC50 is a log-scale quantity: -log10 of the concentration expressed in molar.

Reference set (3 entries):
Cc1ccc2c(=O)cc(-c3ccc(OCCOCCOCCOCCOCCOCCOc4ccc(-c5cc(=O)c6ccc(C)cc6o5)cc4)cc3)oc2c1 5.28
O=c1cc(-c2ccc(OCCOCCN(CCOCCOc3ccc(-c4cc(=O)c5ccccc5o4)cc3)Cc3cccnc3)cc2)oc2ccccc12 6.01
O=c1cc(-c2ccccc2OCCOCCN(CCOCCOc2ccccc2-c2cc(=O)c3ccccc3o2)Cc2ccncc2)oc2ccccc12 5.40

Here is another compound to look at.
The compound listed as `O=c1cc(-c2ccc(OCCOCCOCCOCCOCCOc3ccc(-c4cc(=O)c5ccc(F)cc5o4)cc3)cc2)oc2cc(F)ccc12` shows pIC50 equal to 5.32

* * *

Tested on: Leishmania donovani
Test: Antimicrobial activity against SSG-resistant Leishmania donovani 39 promastigote assessed as inhibition of parasite growth after 72 hrs by MTS assay
Type: functional, organism-based
Conditions: Leishmania donovani, 39, 72 h
IC50 values by entry

Reference set (3 entries):
O=C(O)CCC(=O)N(CCOCCOc1ccc(-c2cc(=O)c3ccccc3o2)cc1)CCOCCOc1ccc(-c2cc(=O)c3ccccc3o2)cc1 > 100 µM
O=c1cc(-c2ccc(O)c(O)c2)oc2cc(O)cc(O)c12 89 µM
O=c1cc(-c2ccc(OCCOCCN(CCOCCOc3ccc(-c4cc(=O)c5ccccc5o4)cc3)Cc3ccncc3Br)cc2)oc2ccccc12 > 50 µM

Here is another compound to look at.
The compound listed as `O=c1cc(-c2cccc(OCCOCCN(CCOCCOc3cccc(-c4cc(=O)c5ccccc5o4)c3)Cc3ccncc3)c2)oc2ccccc12` shows IC50 equal to 0.44 µM

* * *

Experiment: Therapeutic index, ratio of IC50 for mouse Peritoneal macrophages to IC50 for SSG-resistant Leishmania donovani 39 promastigote
Conditions: read-out: Ratio IC50
selectivity ratio values by entry

The compound listed as C[C@@H]1[C@H](O)[C@@H](C)/C=C/C=C/C=C/C=C/C=C/C=C/C=C/[C@H](O[C@@H]2O[C@H](C)[C@@H](O)[C@H](N)[C@@H]2O)C[C@@H]2O[C@](O)(C[C@@H](O)C[C@@H](O)[C@H](O)CC[C@@H](O)C[C@@H](O)CC(=O)O[C@H]1C)C[C@H](O)[C@H]2C(=O)O [AMPHOTERICIN B] shows selectivity ratio equal to 77.9

The compound listed as N=C(N)c1ccc(OCCCCCOc2ccc(C(=N)N)cc2)cc1 [PENTAMIDINE] shows selectivity ratio equal to 5.7

The compound listed as O=c1c(O)c(-c2ccc(O)c(O)c2)oc2cc(O)cc(O)c12 [QUERCETIN] shows selectivity ratio equal to > 1

The compound listed as `O=c1cc(-c2ccc(OCCOCCN(CCOCCOc3ccc(-c4cc(=O)c5ccccc5o4)cc3)Cc3ccncc3)cc2)oc2ccccc12` shows selectivity ratio equal to > 419

The compound listed as NC[C@@H]1O[C@H](O[C@H]2[C@@H](O)[C@H](O[C@@H]3[C@@H](O)[C@H](N)C[C@H](N)[C@H]3O[C@H]3O[C@H](CO)[C@@H](O)[C@H](O)[C@H]3N)O[C@@H]2CO)[C@H](N)[C@@H](O)[C@@H]1O [PAROMOMYCIN] shows selectivity ratio equal to > 4.1

The compound listed as O=c1cc(-c2ccc(O)c(O)c2)oc2cc(O)cc(O)c12 [LUTEOLIN] shows selectivity ratio equal to 0.9

* * *

pIC50 values by entry
Test system: Leishmania donovani
Assay: Antimicrobial activity against SSG-resistant Leishmania donovani 39 promastigote assessed as inhibition of parasite growth after 72 hrs by MTS assay
Assay type: functional, organism-based
Conditions: Leishmania donovani, 39, 72 h
pIC50 is a log-scale quantity: -log10 of the concentration expressed in molar.

Reference set (5 entries):
Cc1ccc2oc(-c3ccc(OCCOCCOCCOCCOCCOc4ccc(-c5cc(=O)c6cc(C)ccc6o5)cc4)cc3)cc(=O)c2c1 5.37
O=c1c(OCCOCCN(CCOCCOc2c(-c3ccccc3)oc3ccccc3c2=O)Cc2ccncc2)c(-c2ccccc2)oc2ccccc12 5.51
CCCCCCCCCCCCCCCCOP(=O)([O-])OCC[N+](C)(C)C 4.76
Cc1ccc2oc(-c3ccc(OCCOCCOCCOCCOCCOCCOc4ccc(-c5cc(=O)c6cc(C)ccc6o5)cc4)cc3)cc(=O)c2c1 5.44
O=c1cc(-c2ccc(OCCOCCN(CCCc3ccccc3)CCOCCOc3ccc(-c4cc(=O)c5ccccc5o4)cc3)cc2)oc2ccccc12 4.74

The molecule listed as `O=c1cc(-c2ccc(OCCOCCN(CCOCCOc3ccc(-c4cc(=O)c5ccccc5o4)cc3)Cc3ccccn3)cc2)oc2ccccc12` shows pIC50 equal to 5.38

The molecule listed as `O=c1cc(-c2ccc(OCCOCCOCCOCCOCCOCCOCCOCCOCCOCCOCCOCCOCCOc3ccc(-c4cc(=O)c5ccccc5o4)cc3)cc2)oc2ccccc12` shows pIC50 equal to 5.09

The molecule listed as `O=c1cc(-c2ccc(OCCOCCOCCOCCOCCOCCOCCOc3ccc(-c4cc(=O)c5ccccc5o4)cc3)cc2)oc2ccccc12` shows pIC50 equal to 4.99

The molecule listed as `O=c1cc(-c2ccc(OCCOCCOCCOCCOCCOCCOCCOCCOCCOc3ccc(-c4cc(=O)c5ccccc5o4)cc3)cc2)oc2ccccc12` shows pIC50 equal to 5.07

The molecule listed as `Cc1c(-c2ccc(OCCOCCOCCOCCOCCOc3ccc(-c4oc5ccccc5c(=O)c4C)cc3)cc2)oc2ccccc2c1=O` shows pIC50 equal to 5.38

The molecule listed as `O=c1cc(-c2ccc(OCCOCCOCCOCCOc3ccc(-c4cc(=O)c5ccc(F)cc5o4)cc3)cc2)oc2cc(F)ccc12` shows pIC50 equal to 5.62
